Target Desc: Cyclin-dependent kinase 1/cyclin B (Homo sapiens) (UniProt P06493+P14635+Q8WWL7+O95067)
Condition Description: Asteroidea
Description: Inhibition of Cyclin-dependent kinase 1-cyclin B
Property: ID50 (µM)
Provide only the numeric value, understood in µM.

O=C1Cc2c([nH]c3ccc(Br)cc23)-c2ccccc2N1: 0.035

Item under review: CCn1cnc2c(N)nc(N(c3cccc(Cl)c3)[C@@H]3CCCC[C@@H]3N)nc21 . Reported ID50?
0.016

Queued: CC(C)n1c(=O)ccc2ncc(Nc3ccc(N4CCN(C)CC4)cc3)cc21
0.675

Queued: OCCCNc1cc(-c2ccnc(Nc3cccc(Cl)c3)n2)ccn1
0.02

* * *

Target Desc: Cyclin-dependent kinase 2/cyclin E (Homo sapiens) (UniProt P24864+P24941+O96020)
Condition Description: Asteroidea
Description: Inhibition of Cyclin-dependent kinase 2-cyclin E
Label Criterion met when ID50 is strictly below 9 nM; at or above that, label Criterion not met.

CNS(=O)(=O)c1ccc(/N=N/c2c(O)[nH]c3ccc4ncsc4c23)cc1: Criterion met
CNS(=O)(=O)Cc1ccc(/N=N/c2c(O)[nH]c3ccc4ncccc4c23)cc1: Criterion met
OCCCNc1cc(-c2ccnc(Nc3cccc(Cl)c3)n2)ccn1: Criterion not met

Moving on to another molecule below.
Is ID50 of CC(C)n1c(=O)ccc2ncc(Nc3ccc(N4CCN(C)CC4)cc3)cc21 strictly below 9 nM?
Criterion not met
